Tested on: Mycobacterium tuberculosis Erdman (autoluminescent)
TEST DESCRIPTION: total FIC90 (Loewe) at 90% inhibition, three-drug combination (log2); higher = more antagonistic
EXPERIMENTAL SETUP: in vitro model: intracellular J774; time point: constant = terminal
Each entry below carries its recorded total FIC90.
API doc: respond with a numeric literal and nothing else, no unit.

Past entries and their recorded results:
# MOLECULE, total FIC90
rows = [
    ("COc1nc2ccc(Br)cc2cc1[C@@H](c1ccccc1)[C@@](O)(CCN(C)C)c1cccc2ccccc12 [bedaquiline] + CC(C)/N=c1\\cc2n(-c3ccc(Cl)cc3)c3ccccc3nc-2cc1Nc1ccc(Cl)cc1 [clofazimine] + CC[C@@H](CO)NCCN[C@@H](CC)CO [ethambutol]", -0.364),
    ("NNC(=O)c1ccncc1 [isoniazid] + CC(=O)NC[C@H]1CN(c2ccc(N3CCOCC3)c(F)c2)C(=O)O1 [linezolid] + CO[C@H]1/C=C/O[C@@]2(C)Oc3c(C)c(O)c4c(O)c(c(/C=N/N5CCN(C6CCCC6)CC5)c(O)c4c3C2=O)NC(=O)/C(C)=C\\C=C\\[C@H](C)[C@H](O)[C@@H](C)[C@@H](O)[C@@H](C)[C@H](OC(C)=O)[C@@H]1C [rifapentine]", 0.00443),
    ("CC(C)/N=c1\\cc2n(-c3ccc(Cl)cc3)c3ccccc3nc-2cc1Nc1ccc(Cl)cc1 [clofazimine] + NNC(=O)c1ccncc1 [isoniazid] + CO[C@H]1/C=C/O[C@@]2(C)Oc3c(C)c(O)c4c(O)c(c(/C=N/N5CCN(C)CC5)c(O)c4c3C2=O)NC(=O)/C(C)=C\\C=C\\[C@H](C)[C@H](O)[C@@H](C)[C@@H](O)[C@@H](C)[C@H](OC(C)=O)[C@@H]1C [rifampicin]", 0.112),
    ("CC[C@@H](CO)NCCN[C@@H](CC)CO [ethambutol] + CC(=O)NC[C@H]1CN(c2ccc(N3CCOCC3)c(F)c2)C(=O)O1 [linezolid] + COc1c(N2C[C@@H]3CCCN[C@@H]3C2)c(F)cc2c(=O)c(C(=O)O)cn(C3CC3)c12 [moxifloxacin]", -0.395),
    ("NNC(=O)c1ccncc1 [isoniazid] + NC(=O)c1cnccn1 [pyrazinamide] + CO[C@H]1/C=C/O[C@@]2(C)Oc3c(C)c(O)c4c(O)c(c(/C=N/N5CCN(C)CC5)c(O)c4c3C2=O)NC(=O)/C(C)=C\\C=C\\[C@H](C)[C@H](O)[C@@H](C)[C@@H](O)[C@@H](C)[C@H](OC(C)=O)[C@@H]1C [rifampicin]", 0.327),
]

Entry CC(C)/N=c1\cc2n(-c3ccc(Cl)cc3)c3ccccc3nc-2cc1Nc1ccc(Cl)cc1 [clofazimine] + CC(=O)NC[C@H]1CN(c2ccc(N3CCOCC3)c(F)c2)C(=O)O1 [linezolid] + NC(=O)c1cnccn1 [pyrazinamide] : reported total FIC90 = ? 0.0502

Can you check CC(C)/N=c1\cc2n(-c3ccc(Cl)cc3)c3ccccc3nc-2cc1Nc1ccc(Cl)cc1 [clofazimine] + CC(=O)NC[C@H]1CN(c2ccc(N3CCOCC3)c(F)c2)C(=O)O1 [linezolid] + O=[N+]([O-])c1cn2c(n1)OC[C@@H](OCc1ccc(OC(F)(F)F)cc1)C2 [pretomanid] next? 1.09

Can you check CC[C@@H](CO)NCCN[C@@H](CC)CO [ethambutol] + CC(=O)NC[C@H]1CN(c2ccc(N3CCOCC3)c(F)c2)C(=O)O1 [linezolid] + O=[N+]([O-])c1cn2c(n1)OC[C@@H](OCc1ccc(OC(F)(F)F)cc1)C2 [pretomanid] next? 0.0435

Can you check COc1nc2ccc(Br)cc2cc1[C@@H](c1ccccc1)[C@@](O)(CCN(C)C)c1cccc2ccccc12 [bedaquiline] + CC(C)/N=c1\cc2n(-c3ccc(Cl)cc3)c3ccccc3nc-2cc1Nc1ccc(Cl)cc1 [clofazimine] + CC(=O)NC[C@H]1CN(c2ccc(N3CCOCC3)c(F)c2)C(=O)O1 [linezolid] next? 0.186

Can you check COc1nc2ccc(Br)cc2cc1[C@@H](c1ccccc1)[C@@](O)(CCN(C)C)c1cccc2ccccc12 [bedaquiline] + COc1c(N2C[C@@H]3CCCN[C@@H]3C2)c(F)cc2c(=O)c(C(=O)O)cn(C3CC3)c12 [moxifloxacin] + CO[C@H]1/C=C/O[C@@]2(C)Oc3c(C)c(O)c4c(O)c(c(/C=N/N5CCN(C)CC5)c(O)c4c3C2=O)NC(=O)/C(C)=C\C=C\[C@H](C)[C@H](O)[C@@H](C)[C@@H](O)[C@@H](C)[C@H](OC(C)=O)[C@@H]1C [rifampicin] next? 0.931

Can you check CC(C)/N=c1\cc2n(-c3ccc(Cl)cc3)c3ccccc3nc-2cc1Nc1ccc(Cl)cc1 [clofazimine] + NNC(=O)c1ccncc1 [isoniazid] + COc1c(N2C[C@@H]3CCCN[C@@H]3C2)c(F)cc2c(=O)c(C(=O)O)cn(C3CC3)c12 [moxifloxacin] next? 0.642

Can you check COc1c(N2C[C@@H]3CCCN[C@@H]3C2)c(F)cc2c(=O)c(C(=O)O)cn(C3CC3)c12 [moxifloxacin] + NC(=O)c1cnccn1 [pyrazinamide] + CO[C@H]1/C=C/O[C@@]2(C)Oc3c(C)c(O)c4c(O)c(c(/C=N/N5CCN(C6CCCC6)CC5)c(O)c4c3C2=O)NC(=O)/C(C)=C\C=C\[C@H](C)[C@H](O)[C@@H](C)[C@@H](O)[C@@H](C)[C@H](OC(C)=O)[C@@H]1C [rifapentine] next? 0.713

Can you check CC(C)/N=c1\cc2n(-c3ccc(Cl)cc3)c3ccccc3nc-2cc1Nc1ccc(Cl)cc1 [clofazimine] + CC(=O)NC[C@H]1CN(c2ccc(N3CCOCC3)c(F)c2)C(=O)O1 [linezolid] + CO[C@H]1/C=C/O[C@@]2(C)Oc3c(C)c(O)c4c(O)c(c(/C=N/N5CCN(C6CCCC6)CC5)c(O)c4c3C2=O)NC(=O)/C(C)=C\C=C\[C@H](C)[C@H](O)[C@@H](C)[C@@H](O)[C@@H](C)[C@H](OC(C)=O)[C@@H]1C [rifapentine] next? -0.239
